Target under test: Tyrosyl-tRNA synthetase, putative (Trypanosoma cruzi (strain CL Brener)) (UniProt Q4DSP6)
Sequence (Q4DSP6 as listed by the source): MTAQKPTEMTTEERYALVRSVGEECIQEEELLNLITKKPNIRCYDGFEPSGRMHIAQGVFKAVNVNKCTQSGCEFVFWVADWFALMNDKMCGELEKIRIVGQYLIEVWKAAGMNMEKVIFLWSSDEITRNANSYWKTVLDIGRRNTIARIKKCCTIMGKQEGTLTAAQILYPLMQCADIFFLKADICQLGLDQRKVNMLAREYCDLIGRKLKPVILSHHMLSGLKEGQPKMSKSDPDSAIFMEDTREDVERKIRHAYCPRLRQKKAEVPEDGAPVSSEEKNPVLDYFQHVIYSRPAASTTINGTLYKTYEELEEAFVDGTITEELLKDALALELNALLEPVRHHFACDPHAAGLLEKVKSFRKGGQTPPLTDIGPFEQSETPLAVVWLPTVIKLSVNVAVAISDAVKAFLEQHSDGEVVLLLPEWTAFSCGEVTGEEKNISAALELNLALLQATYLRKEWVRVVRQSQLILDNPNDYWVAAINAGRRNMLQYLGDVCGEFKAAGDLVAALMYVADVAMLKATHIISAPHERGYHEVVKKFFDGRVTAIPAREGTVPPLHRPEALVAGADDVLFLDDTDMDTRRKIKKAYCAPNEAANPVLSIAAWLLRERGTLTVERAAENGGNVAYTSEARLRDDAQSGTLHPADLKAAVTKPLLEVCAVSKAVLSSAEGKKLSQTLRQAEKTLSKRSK
Test protocol: Trypanosoma cruzi tyrosyl tRNA synthetase (TcYRS) SOP
Assay type: functional
Parameters: scale not given: direction of the effect not stated beside the values
Condition context: 30 µM
# Percent Effect per record follows
Write the value in % as a bare number.

These solved cases illustrate the format of a correct answer.
# Compound, Percent Effect (%)
data = [
    ("CCOc1ncccc1C(=O)N1CCCCC1c1nccs1 (centres undefined)", 11.1),
    ("Cc1cccnc1CN1CCC(c2nnc(Cn3cccn3)n2C)CC1", 10.3),
    ("Cc1nc(CN(C)C2CCN(Cc3ccc4c(c3)OCCO4)C2)no1 (centres undefined)", 11.8),
    ("Cc1c[nH]nc1C1CCN(S(=O)(=O)N(C)C)CC1", 6.49),
    ("Cc1nc(CN2CCCC2c2nc(C(C)C)no2)cs1 (centres undefined)", 12.8),
]

Shifting focus to the compound that follows.
Field Percent Effect (Tyrosyl-tRNA synthetase, putative (Trypanosoma cruzi (strain CL Brener)) (UniProt Q4DSP6)), entry `Cc1cccc(CN2C[C@@H]3CN(C(=O)c4ccsc4)C[C@@H]3C2=O)c1` : 8.64

---

Target under test: Sialic acid-binding Ig-like lectin 9 (Homo sapiens) (UniProt Q9Y336)
Sequence (Q9Y336 whole entry): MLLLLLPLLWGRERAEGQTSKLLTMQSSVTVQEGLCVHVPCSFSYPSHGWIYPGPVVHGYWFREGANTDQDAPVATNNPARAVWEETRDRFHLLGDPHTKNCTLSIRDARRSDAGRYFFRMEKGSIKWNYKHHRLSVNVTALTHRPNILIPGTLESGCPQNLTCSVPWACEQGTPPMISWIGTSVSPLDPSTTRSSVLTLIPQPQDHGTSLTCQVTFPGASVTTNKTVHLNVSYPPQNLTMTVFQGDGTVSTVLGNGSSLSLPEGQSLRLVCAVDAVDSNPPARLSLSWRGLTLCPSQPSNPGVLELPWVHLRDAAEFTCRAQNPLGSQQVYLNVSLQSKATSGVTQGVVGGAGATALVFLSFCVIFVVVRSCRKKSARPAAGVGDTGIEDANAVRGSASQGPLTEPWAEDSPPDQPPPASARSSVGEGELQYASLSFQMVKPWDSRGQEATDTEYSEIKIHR
Test protocol: Hs-Siglec9 ALPHAscreen SOP 20170721
Set-up: scale not given: direction of the effect not stated beside the values
Condition context: 10 µM
# Percent Effect per record follows
Write the value in % as a bare number.

These solved cases illustrate the format of a correct answer.
# Molecule, Target under test, Output unit, Percent Effect
rows = [
    ("N#Cc1ccccc1OCCN1CCCCC1Cn1cncn1 (centres undefined)", "Sialic acid-binding Ig-like lectin 9 (Homo sapiens) (UniProt Q9Y336)", "%", 8.52),
    ("CC1CN(C(=O)CN(Cc2ccco2)C2CC2)CCO1 (centres undefined)", "Sialic acid-binding Ig-like lectin 9 (Homo sapiens) (UniProt Q9Y336)", "%", -1.26),
    ("CN(C)c1nc2c(c(N3CCC(O)CC3)n1)CN(CC1CCNC1)CC2 (centres undefined)", "Sialic acid-binding Ig-like lectin 9 (Homo sapiens) (UniProt Q9Y336)", "%", 10.5),
]

So, `CC(=O)Nc1nc(CN2CCn3c(nnc3C3CC3)C2)cs1` ? Its Percent Effect was 6.61

So, Cc1nc(C)n(CC2CN(c3ccc(C#N)cn3)CCO2)n1 (centres undefined) ? Its Percent Effect was 10.3

So, `Cc1noc(C(C)C)c1C(=O)NCc1cc(F)cc(F)c1` ? Its Percent Effect was -1.87

So, NC(=O)C1CCCN1Cc1cccc(NC(=O)c2ccsc2)c1 (centres undefined) ? Its Percent Effect was 13.7

So, `c1cc(CNCc2ccc3c(c2)CCO3)cc(N2CCOCC2)n1` ? Its Percent Effect was -3.3

So, `CCO[C@@H]1CO[C@@]2(CCCN(Cc3scnc3C)C2)C1` ? Its Percent Effect was 9.05

So, CN(C)C(C(=O)N1CCC(N2CCSCC2)CC1)c1ccccc1F (centres undefined) ? Its Percent Effect was 4.95

So, COc1c(CNC2CCCc3ccccc32)c(C)nn1C (centres undefined) ? Its Percent Effect was 24

So, `CC(C)(C)OC(=O)N1CCN(C(=O)c2sccc2C2CC2)CC1` ? Its Percent Effect was 1.31

So, `O=C(CCc1cc2n(n1)CCCN(C(=O)c1ccccn1)C2)NC1CC1` ? Its Percent Effect was 15.3

So, `Cc1ccc(CN2CCc3ncc(CNS(C)(=O)=O)n3CC2)o1` ? Its Percent Effect was 6.78

So, `O=C(NCCCNC(=O)c1cccc(O)c1)Nc1ccc(F)cc1F` ? Its Percent Effect was -5.18

So, CNS(=O)(=O)c1ccc(C(=O)N2CCCC2c2ccccc2)o1 (centres undefined) ? Its Percent Effect was 2.47

So, CC(NC(=O)NCCNc1cnccn1)c1cccs1 (centres undefined) ? Its Percent Effect was 3.58

So, `CC(=O)NCCNC(=O)N(C)Cc1ccc2c(c1)OCCO2` ? Its Percent Effect was -6.13

So, `Cc1ccc(C)c(OCCN2CCC(N3CCNC3=O)CC2)c1` ? Its Percent Effect was 6.39

So, `Cc1nc(N2CC[C@@H](NC(=O)c3cnccn3)[C@H](O)C2)c2ccsc2n1` ? Its Percent Effect was 15.3

So, `O=C(c1ccc[nH]1)N1C[C@H]2CN(Cc3cccc(F)c3)C(=O)[C@H]2C1` ? Its Percent Effect was -6.44

So, Cc1nc(C)n(CC2CCCCN2CCC(=O)Nc2cc(C)on2)n1 (centres undefined) ? Its Percent Effect was 1.14

So, Clc1snnc1CN1CCCCC1Cn1cncn1 (centres undefined) ? Its Percent Effect was -9.75

So, CN(C)CC1CN(Cc2cccc(C(=O)N(C)C)c2)CCO1 (centres undefined) ? Its Percent Effect was -4.42
